System: human breast cancer cells (MCF-7)
Experiment: MTT cell viability assay, MCF-7
Type: cell-based
Settings: MCF7, 48 h, MCF-7 cells, read-out: half inhibitory concentration (IC50), MCF-7
Quick reference: IC50 of the listed items.

[
  {
    "SMILES REPRESENTATION": "CCCCCCCCCCCC(=O)Oc1ccc2c(=O)c(-c3ccc(OC)cc3)coc2c1",
    "MEASURED ON": "human breast cancer cells (MCF-7)",
    "IC50": "67.8 µM"
  },
  {
    "SMILES REPRESENTATION": "COc1ccc(-c2coc3cc(OC(=O)CCCCCC[P+](c4ccccc4)(c4ccccc4)c4ccccc4)ccc3c2=O)cc1",
    "MEASURED ON": "human breast cancer cells (MCF-7)",
    "IC50": "46.5 µM"
  },
  {
    "SMILES REPRESENTATION": "COc1ccc(-c2coc3cc(OC(=O)CCCCCCCCCC[P+](c4ccccc4)(c4ccccc4)c4ccccc4)ccc3c2=O)cc1",
    "MEASURED ON": "human breast cancer cells (MCF-7)",
    "IC50": "52.3 µM"
  }
]
